Mean normalized OD for assorted binders
EXPERIMENTAL_SYSTEM: T1, monomeric SARS-CoV-2 receptor binding domain (RBD-H6) (SARS-CoV-2, UniProt P0DTC2 319-541)
T1 construct: Made in HEK293-6E cells; also called RBD Spike; monomeric RBD
TEST_METHOD_NOTES: ELISA screen
Could you give me the number in OD? Just the number is fine.

Some binders with recorded Mean normalized OD:
binder="Cd209e CRD-mouse IgG2a-Fc fusion protein (Fc fusion) FFNGNCYFFSKSQRDWHDSMTACKEMGAQLVIIKSHEEQSFLQQTSKKNSYTWMGLSDLNKEGEWYWLDGSPLSDSFEKYWKKGQPNNVGGQDCVEFRDNGWNDAKCEQRKFWICKGGGSGGGSGGGS" result_unit=OD observed_value=0.048
binder="Pkd1l3 CRD-mouse IgG2a-Fc fusion protein (Fc fusion) GGNSCYQLNRLFCDFQEADNYCHAQRGRLAHTWNPKLRGFLKSFLNEETVWWVRGNLTLPGSHPGINQTGGDDVLRNQKPGECPSVVTHSNAVFSRWNLCIEKHHFICQGGGSGGGSGGGS" result_unit=OD observed_value=-0.001
binder="Reg2 CRD-mouse IgG2a-Fc fusion protein (Fc fusion) INCPEGANAYGSYCYYLIEDRLTWGEADLFCQNMNAGHLVSILSQAESNFVASLVKESGTTASNVWTGLHDPKSNRRWHWSSGSLFLFKSWATGAPSTANRGYCVSLTSNTAYKKWKDENCEAQYSFVCKFGGGSGGGSGGGS" result_unit=OD observed_value=0.026
binder="Clec12b CRD-mouse IgG2a-Fc fusion protein (Fc fusion) YGNSCYYFSINEEKSWSDSRKDCIDKNATLVKIDSTEERDLLQSQLSLTFSFFWLGLSWNSSGRNWLWEDGSFPPPTLFSDKELASFNGSRDCAYFERGNIYASRCSAEIPWICEGGGSGGGSGGGS" result_unit=OD observed_value=0.001
binder="Clec5a CRD-mouse IgG2a-Fc fusion protein (Fc fusion) HQGKCFFFSFSESPWKDSMDYCATQGSTLAIVNTPEKLKYLQDIAGIENYFIGLVRQPGEKKWRWINNSVFNGNVTNQDQNFDCVTIGLTKTYDAASCEVSYRWICEGGGSGGGSGGGS" result_unit=OD observed_value=-0.001
binder="Lgals2 CRD-mouse IgG2a-Fc fusion protein (Fc fusion) KFEVKDLNMKPGMSLKIKGKIHNDVDRFLINLGQGKETLNLHFNPRFDESTIVCNTSEGGRWGQEQRENHMCFSPGSEVKITITFQDKDFKVTLPDGHQLTFPNRLGHNQLHYLSMGGLQISSFKLEGGGSGGGSGGGS" result_unit=OD observed_value=0.018

# evaluate next
Please indicate Mean normalized OD recorded for Mrc1_2 CRD-mouse IgG2a-Fc fusion protein (Fc fusion) YAGHCYRIHREEKKIQKYALQACRKEGGDLASIHSIEEFDFIFSQLGYEPNDELWIGLNDIKIQMYFEWSDGTPVTFTKWLPGEPSHENNRQEDCVVMKGKDGYWADRACEQPLGYICKGGGSGGGSGGGS 0.106

Values compiled from patent EP4039268A1.
